measuredTarget: HA-F801A CaSR mutant (ICL3 mutant) (Rattus norvegicus, UniProt P48442, F801A)
Construct: mGluR5 signal peptide (N)
protocolText: IP-One assay, HEK293T transiently transfected
testConditions: Ca^2+ alone
assayReadout: EC50

## Task // query EC50 value for entry [Ca+2] [Ca^2+]
## Result > 30 mM

###

measuredTarget: HA-S147A CaSR mutant (Rattus norvegicus, UniProt P48442, S147A)
Construct: mGluR5 signal peptide (N)
Sequence (P48442 20-1079 S147A): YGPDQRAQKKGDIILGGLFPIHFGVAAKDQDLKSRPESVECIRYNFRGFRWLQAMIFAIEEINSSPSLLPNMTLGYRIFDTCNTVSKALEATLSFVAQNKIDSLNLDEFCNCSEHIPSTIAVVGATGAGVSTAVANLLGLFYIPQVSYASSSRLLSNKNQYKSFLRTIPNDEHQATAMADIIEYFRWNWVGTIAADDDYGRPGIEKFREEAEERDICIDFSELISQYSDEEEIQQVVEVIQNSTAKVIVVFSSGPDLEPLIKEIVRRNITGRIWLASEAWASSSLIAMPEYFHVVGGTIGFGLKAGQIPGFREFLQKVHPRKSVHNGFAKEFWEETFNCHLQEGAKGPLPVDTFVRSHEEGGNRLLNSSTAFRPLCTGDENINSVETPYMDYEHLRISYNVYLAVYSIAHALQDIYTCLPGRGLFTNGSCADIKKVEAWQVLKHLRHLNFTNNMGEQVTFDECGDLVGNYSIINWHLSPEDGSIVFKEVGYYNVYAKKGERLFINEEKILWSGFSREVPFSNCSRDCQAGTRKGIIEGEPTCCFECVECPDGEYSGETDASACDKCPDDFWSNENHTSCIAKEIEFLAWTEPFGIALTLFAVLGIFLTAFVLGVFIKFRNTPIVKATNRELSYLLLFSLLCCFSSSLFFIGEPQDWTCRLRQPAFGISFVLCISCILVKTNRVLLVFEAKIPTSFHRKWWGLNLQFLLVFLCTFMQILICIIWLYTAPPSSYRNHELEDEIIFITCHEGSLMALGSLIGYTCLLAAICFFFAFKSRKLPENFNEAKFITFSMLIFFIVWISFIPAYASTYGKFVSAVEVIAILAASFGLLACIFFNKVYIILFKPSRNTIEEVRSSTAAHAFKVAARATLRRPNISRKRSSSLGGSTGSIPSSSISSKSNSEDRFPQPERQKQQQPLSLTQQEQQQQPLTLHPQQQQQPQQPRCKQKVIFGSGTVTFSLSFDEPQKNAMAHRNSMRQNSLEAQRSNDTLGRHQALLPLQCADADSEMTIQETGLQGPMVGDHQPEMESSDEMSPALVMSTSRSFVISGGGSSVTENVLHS
protocolText: IP-One assay, HEK293T transiently transfected
testConditions: Ca^2+ alone
assayReadout: EC50 (mM)
Hi! Could you send only the number? It should be in mM, unit omitted.

## Task // query EC50 value for entry [Ca+2] [Ca^2+]
## Result 9.07

###

measuredTarget: HA-E837A CaSR mutant (Rattus norvegicus, UniProt P48442, E837A)
Construct: mGluR5 signal peptide (N); expressed in transfected cells; host or cells: HEK293T
Sequence (P48442 20-1079 E837A): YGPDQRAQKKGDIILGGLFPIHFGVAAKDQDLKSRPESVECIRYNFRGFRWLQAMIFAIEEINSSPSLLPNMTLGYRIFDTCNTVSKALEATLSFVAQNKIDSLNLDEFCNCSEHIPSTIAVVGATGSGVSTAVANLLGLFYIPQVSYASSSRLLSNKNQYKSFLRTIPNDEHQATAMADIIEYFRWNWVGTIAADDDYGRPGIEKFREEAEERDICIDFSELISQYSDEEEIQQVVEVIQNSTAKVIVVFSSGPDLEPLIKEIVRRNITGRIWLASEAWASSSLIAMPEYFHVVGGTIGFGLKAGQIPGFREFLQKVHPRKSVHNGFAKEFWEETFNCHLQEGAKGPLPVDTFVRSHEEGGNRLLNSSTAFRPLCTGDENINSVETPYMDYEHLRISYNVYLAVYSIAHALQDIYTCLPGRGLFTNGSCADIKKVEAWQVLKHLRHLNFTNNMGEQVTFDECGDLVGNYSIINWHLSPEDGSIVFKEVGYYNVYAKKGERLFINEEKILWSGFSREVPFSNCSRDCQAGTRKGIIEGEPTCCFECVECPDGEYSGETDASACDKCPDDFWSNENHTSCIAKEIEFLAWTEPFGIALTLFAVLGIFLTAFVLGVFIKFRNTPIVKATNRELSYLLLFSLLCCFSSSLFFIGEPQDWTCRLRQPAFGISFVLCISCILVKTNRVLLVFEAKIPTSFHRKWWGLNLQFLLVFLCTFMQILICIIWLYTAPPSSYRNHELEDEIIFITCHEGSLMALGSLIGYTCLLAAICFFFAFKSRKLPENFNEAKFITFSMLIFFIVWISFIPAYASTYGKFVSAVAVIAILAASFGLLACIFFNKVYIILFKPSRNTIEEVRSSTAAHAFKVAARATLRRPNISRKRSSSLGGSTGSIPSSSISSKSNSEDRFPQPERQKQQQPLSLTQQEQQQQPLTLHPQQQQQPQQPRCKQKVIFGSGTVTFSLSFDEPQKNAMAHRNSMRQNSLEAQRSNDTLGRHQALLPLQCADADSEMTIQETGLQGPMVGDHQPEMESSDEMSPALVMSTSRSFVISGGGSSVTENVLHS
protocolText: IP-One assay, HEK293T transiently transfected
Format: cell-based
testConditions: HA-E837A, Ca^2+ with 5 μM NPS 2143
Experimental: Human embryonic kidney (HEK) 293T cells were cultured in DMEM supplemented with 10% dFBS and 1% P/S at 37 °C and 5% CO2. 48 h prior to assay, transient transfection was performed using Lipofectamine 2000 as the transfection reagent. […] Functional activity was measured using the IP-One assay, which is an IP1 accumulation assay. […] The 384-well plate was incubated for 1 h at RT in dark before being measured on an EnVision plate reader (PerkinElmer, Waltham, MA, USA). […]
assayReadout: pEC50
Reminder that pEC50 means the negative base-10 logarithm of the concentration expressed in mol/L.

## Task // query pEC50 value for entry `[Ca+2]`
## Result 2.46
